B1: HDV Ribozyme (parent)
chain: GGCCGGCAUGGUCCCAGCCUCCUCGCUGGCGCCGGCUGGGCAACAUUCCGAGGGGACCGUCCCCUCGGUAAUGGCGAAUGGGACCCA

# Variants of: B1
# method.notes: self-cleavage, relative activity (ratio to wild type); higher = more cleavage; co-transcriptional
The label depends only on self-cleavage: y if it is at least 0.4, n if it is smaller.

Query: Has GGCCGGCAUGGUCCCAGCCUCCUCGCUGGCGCCGGCUGGACAACAUUCCGAGGGGACCGUCCCAUCGGUAAUGGCGAAUGGGACCCA [G40A C64A] a recorded self-cleavage greater than or equal to 0.4?
Reply: y

Query: Does GGCCGGCAUGGUCCCAGCCUCCUCGCUGGCGCCGGUUGGGCAACAUUCCGAGGGCACCGUCCCCUCGGUAAUGGCGAAUGGGACCCA [C36U G55C] have a reported self-cleavage of at least 0.4?
Reply: y

Query: Please tell me: is the variant GGCCGGCAUGGUCCCAGCCUCCUCGCUGGCGCCGGCUGGGCAACAUUCCGAGAGGAACGUCCCCUCGGUAAUGGCGAAUGGGACCCA [G53A C57A] at or over 0.4 in terms of self-cleavage?
Reply: y

Query: Is reported self-cleavage greater than or equal to 0.4 here: GGCCGGCAUUGUCCCAGCCUCCUCGUUGGCGCCGGCUGGGCAACAUUCCGAGGGGACCGUCCCCUCGGUAAUGGCGAAUGGGACCCA [G10U C26U]
Reply: y

Query: Could you tell me if the measured self-cleavage of GGCCGGCAUGGUCCCAGCCUCCUCGCUGGCGCCGGCUGGGCAACAUUCCGAGGGGACCGUCCUCUCGGUAAUGGCGAAUAGGACCCA [C63U G80A] reaches 0.4 or more?
Reply: y

Query: Determine whether measured self-cleavage meets or exceeds 0.4 for GGCCGGCAUGGUGCCAGCCUCCUCGUUGGCGCCGGCUGGGCAACAUUCCGAGGGGACCGUCCCCUCGGUAAUGGCGAAUGGGACCCA [C13G C26U]
Reply: n

Query: Please tell me: is the variant GGCCGGCAUGGUCCCAGCCUCCUAGCUGGCGCCGGCUGGGCAACAUUCCGAGGGGACCGUCCCCUCGGUAACGGCGAAUGGGACCCA [C24A U72C] at or over 0.4 in terms of self-cleavage?
Reply: n

Query: self-cleavage >= 0.4 for GGCCGGCAUGUUCCCAGCCUCCUCGCUGGCGCCGGCUUGGCAACAUUCCGAGGGGACCGUCCCCUCGGUAAUGGCGAAUGGGACCCA [G11U G38U] ?
Reply: n

Query: Item GGCCGGCAUGGUCCCAGCCUCCUCGCUGGCGCCGGCUGGGCAACAUUUCGAGGGGACCGUCCCCUCGGUAAUGGCGAAUGCGACCCA [C48U G81C] with self-cleavage of 0.4 or above?
Reply: n

Query: Is it the case that GGCCGGCAUGGUCCCAGCCUCCUCGCUGACGCCGGCUGGGCAACAUUCCGAGGGGACCGUCCCCUCGGUAAAGGCGAAUGGGACCCA [G29A U72A] has self-cleavage reaching or exceeding 0.4?
Reply: n

Query: // inclusive: self-cleavage at least 0.4? input: GGCCGGCAUGGUCCCAGCCUCCUCGCUGGCGCCGGCUGGGCAACAUUCCGAGGGAACCUUCCCCUCGGUAAUGGCGAAUGGGACCCA [G55A G59U]
Reply: y

Query: API: above_or_equal(metric=self-cleavage, cutoff=0.4) for item GGCCGGCAUGGUCCCAGCCUCCUCGCUCGCGCCGGCUGGGCAACAUUCCGAGGGGACCGUCCCCUCGGUAAUUGCGAAUGGGACCCA [G28C G73U]
Reply: n

Query: Check if self-cleavage >= 0.4 (inclusive). Item: GCCCGGCAUGGUCCCAGCCUCCUCGCUGGCGCCGGCUGGGCAACAUUCCGAGGGGACCGUCCCCUCGGUAAUGGCGAAGGGGACCCA [G2C U79G]
Reply: n

Query: Determine whether this variant has self-cleavage no lower than 0.4: GGCCGGCAUGGUCCUAGCCUCCUCGCUGGCGCCGGCUGGGCAACGUUCCGAGGGGACCGUCCCCUCGGUAAUGGCGAAUGGGACCCA [C15U A45G]
Reply: y

Query: Exam item: decide whether the reported self-cleavage for GGCCGGCAUGGUCCCAGCCUCCUCGCUGGCGCCGGCUGGGCUACAUUCCGAGCGGACCGUCCCCUCGGUAAUGGCGAAUGGGACCCA [A42U G53C] is at least 0.4.
Reply: y

Query: Does the variant GGCCGCCAUGGUCCCAGCCUCCUCGCUGGCGCCGGCUGGGCAACAUUCCGAGGGGACCGUCCCCUCGGUAAUGGCGAAUGGUACCCA [G6C G82U] have recorded self-cleavage that is 0.4 or more?
Reply: n

Query: Quick check: does GGCCGGCAUGGUCCCAGCCUCCUCGCUCGCGCCGGCUGGGCAACAUUCCGAGGGGACCGUCCCCUCGGUAAUGGCGAAUGGGUCCCA [G28C A83U] have self-cleavage greater than or equal to 0.4?
Reply: n

Query: Item GGCCGGCAUGGUCCCAGCCUCCUCGCUGGCGCCGGCUGGGCAACAUUCCGAGGGGACCGUGCCCUCGGUAAUUGCGAAUGGGACCCA [C61G G73U] with self-cleavage of 0.4 or above?
Reply: n

Query: Please indicate if the recorded self-cleavage for GGCAGGCAUGGUCCCAGCCUCCUCGCUGGCGCCGGCUGGGCAACAUUCCGAGGAGACCGUCCCCUCGGUAAUGGCGAAUGGGACCCA [C4A G54A] meets or exceeds 0.4.
Reply: n

Query: Please check the record GGCCGGGAUGGUCCCAGCCUCCUCGCUGGCGCCGGCUGGGCAACAAUCCGAGGGGACCGUCCCCUCGGUAAUGGCGAAUGGGACCCA [C7G U46A] and state if its self-cleavage is at or above 0.4.
Reply: n

Query: Identify whether the reported self-cleavage of the following variant is 0.4 or greater: GGCCGGCAUUGUCCCAGCCUCCUCGCUAGCGCCGGCUGGGCAACAUUCCGAGGGGACCGUCCCCUCGGUAAUGGCGAAUGGGACCCA [G10U G28A]
Reply: n

Query: Would you say GGCCGGCAUGGUCCCAGCCUCCUCGCUGGCGCCGGCUCGGCAACAUUCCGAGGGGACCGUCCCCUCGGUAAUGGCGAUUGGGACCCA [G38C A78U] shows self-cleavage at minimum 0.4?
Reply: n

Query: Hi team, for GGCCGGCAUGGUCCCAGCCUCCUCGCUGGCGCCGGCUGGGCAACAUUCCGAAGGGACCGUCCCCUGGGUAAUGGCGAAUGGGACCCA [G52A C66G] , is the recorded self-cleavage at or above 0.4?
Reply: y

Query: Is it the case that GGCCGGCAUGGUCCCAGCCUCCUCGCUGGCGCCGGCCGGGCAACAUUCCGAGGGGACCGUCCCCUCGGUAAUGGCGAAUGGGACACA [U37C C85A] has self-cleavage reaching or exceeding 0.4?
Reply: y

Query: Hello, I need to know if GGCCGGCAAGGUCCCAGCCUCCUCGCUGGCGCCGGCUGGGCAACAUUCCGAGGGGACCGUCCUCUCGGUAAUGGCGAAUGGGACCCA [U9A C63U] has measured self-cleavage not below 0.4. Thanks!
Reply: y

Query: Kindly determine if self-cleavage recorded for GGCCGGCAUGGUCCCAGCCUCCUCGCUGGCGCCGGCUGGGCAACAUUCCGUGGGGCCCGUCCCCUCGGUAAUGGCGAAUGGGACCCA [A51U A56C] is above or exactly 0.4.
Reply: y

Query: Item GCCCGGCAUGGUCCCAGCCUCCUCGCUGGCGCCGGCUGGGCAACAUUCCGAGGGGACCGUCCCCUCGGUAAUGGCGAAUGGGAACCA [G2C C84A] with self-cleavage of 0.4 or above?
Reply: n

Query: # check: self-cleavage of GGCCGGCAUGGUCCCAGCGUCCUCGCUGGCGCCGGCUGGGCAACAUUCCGAGGGGACCGUCCCCUCGGUAUUGGCGAAUGGGACCCA [C19G A71U] is greater than or equal to 0.4
Reply: n

Query: Does the reported self-cleavage for GGCCGGCAUGGUCCCAGCCUCCUGGCUGGCGCCGGCUGGGCAACAUUCCGAGGGGACCGUCCCCUCGGUAACGGCGAAUGGGACCCA [C24G U72C] fall at or above the 0.4 mark?
Reply: n

Query: For this variant, is measured self-cleavage 0.4 or higher? GGCCGGCAUGGUCCCCGCCUCCUCGCUGGCGCCGGCUGGGCAACAUUCCGAGGGGACCGUCCCCUCAGUAAUGGCGAAUGGGACCCA [A16C G67A]
Reply: y

Query: Does GGCCGGCAUGGUCCCAGCCUCCUCGCUGGCGCCGGCGGGCCAACAUUCCGAGGGGACCGUCCCCUCGGUAAUGGCGAAUGGGACCCA [U37G G40C] have a reported self-cleavage of at least 0.4?
Reply: n

Query: Reported self-cleavage reaches at least 0.4 for GGCCGGCAUGGUCCCAGCCUCCUCGCUGGCGCCGGCUGGGCAACAUUCCGAGGGGACCGUCCCCUCGGAAACGGCGAAUGGGACCCA [U69A U72C] ?
Reply: y

Query: // inclusive: self-cleavage at least 0.4? input: GGCCGGCAUGGUCCCAGCCUCCUCGCUGGCGCCGGAUGGGCAACAUUCUGAGGGGACCGUCCCCUCGGUAAUGGCGAAUGGGACCCA [C36A C49U]
Reply: n

Query: Assess whether reported self-cleavage for GGCCGGCCGGGUCCCAGCCUCCUCGCUGGCGCCGGCUGGGCAACAUUCCGAGGGGACCGUCCCCUCGGUAAUGGCGAAUGGGACCCA [A8C U9G] sits at 0.4 or higher.
Reply: y

Query: Hi, just wondering whether GGCCGGCAUGGUCCCAGCCUCCUCGCUGGCGCCGGCUGGGCAACAUUCCGAGGGGACCGUCCCCUCGGUAAUGGCGAAGGGGACUCA [U79G C85U] shows self-cleavage of 0.4 or higher.
Reply: y

Query: Reported self-cleavage reaches at least 0.4 for GGCCGGCAAGGUCCCAGCCUCCUCGCUGGCGCCGGCUGGGCAACAUUCCGAGGGGACCGUCCCCUCGGUAAUGGGGAAUGGGACCCA [U9A C75G] ?
Reply: n

Query: Does the variant GGCCGGGAUGGUCCCAGCCUCCUCGCUGGCGCCGGCUGGGCCACAUUCCGAGGGGACCGUCCCCUCGGUAAUGGCGAAUGGGACCCA [C7G A42C] have recorded self-cleavage that is 0.4 or more?
Reply: n

Query: hey, is self-cleavage for this one >= 0.4? GGCCGGCAUGGUCCCAGCCUCCUCGCUGGCGCCGGCUGGGCAACAUUCCGAGGGGACCGUCCCCUCAGUAAUGUCGAAUGGGACCCA [G67A G74U]
Reply: y
